Provenance of the data: patent US20210214461A1

Target: pre-existing anti-scFv903 antibodies in human serum H26 (human)
Assay: competition ADA bridging ELISA
Assay Metric: signal change in competition ELISA (% reduction in OD) (%)

[
  {
    "Binder": "scFv 903 (scFv) scFv: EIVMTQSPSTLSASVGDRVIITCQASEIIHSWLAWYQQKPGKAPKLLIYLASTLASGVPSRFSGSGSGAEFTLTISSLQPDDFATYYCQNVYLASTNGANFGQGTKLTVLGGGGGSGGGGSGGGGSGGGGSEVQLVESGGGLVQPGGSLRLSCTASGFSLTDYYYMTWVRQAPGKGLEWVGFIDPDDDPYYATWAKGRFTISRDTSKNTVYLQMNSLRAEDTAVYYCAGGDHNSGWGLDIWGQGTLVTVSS",
    "Measurement Units": "%",
    "Reading": -92
  }
]
